Test system: SW-620 colon
experimentalProtocol: NCI-60 one-dose screen, 48 h
conditionSet: 10 µM unless noted
Compounds without any hit were thinned out: in the full panel of roughly 83,000, 20% have a hit. Calls of active or inactive are those of the source. Rule for the calls: active = growth percent below 10; inactive = the rest.
Permitted responses: Y = active, N = inactive

CCOC(=O)c1nn(C2CCCCO2)c2ccc(NC(=O)CSc3nc4ccccc4c(=O)[nH]3)cc12 (stereo not given); N

Name the outcome recorded for `NC1=NC(=O)NC1(c1ccccc1)c1ccccc1` in the assay.
N

Name the outcome recorded for `Cn1cc(-c2noc(-c3cn(C)c4ncc(F)cc34)n2)c2cc(Br)ccc21` in the assay.
N

Name the outcome recorded for `O=C(O)c1cc([N+](=O)[O-])ccc1Br` in the assay.
N

Name the outcome recorded for `c1ccc(-c2nc(N3CCCNCC3)c3nc(-c4ccccc4)oc3n2)cc1` in the assay.
Y

Name the outcome recorded for `CCOc1ccc(S(=O)(=O)Nc2ccc3c(c2)N(S(=O)(=O)CC)CCC3)cc1` in the assay.
N

Name the outcome recorded for `CC1(C)CC[C@]2(C(N)=O)CC[C@]3(C)C(=CC[C@@H]4[C@@]5(C)C/C(=C/c6cccnc6)C(=O)C(C)(C)[C@@H]5CC[C@]43C)[C@@H]2C1` in the assay.
Y

Name the outcome recorded for `O=C(CCN1CCCCC1)c1ccc(Cl)cc1` in the assay.
N

Name the outcome recorded for `CCCCCCSc1ncnc2nc[nH]c12` in the assay.
N

Name the outcome recorded for `Cn1c(=O)c(C#N)c(-c2ccco2)n2c(S(=O)(=O)Cc3ccccc3)nnc12` in the assay.
N

====

System: HCC-2998 colon
experimentalProtocol: NCI-60 one-dose screen, 48 h
conditionSet: 10 µM unless noted
About 83,000 compounds went through this panel and 20% of them were active in at least one assay; those are over-represented in the sample as a whole. Calls of active or inactive are those of the source. How the source made its calls: active means growth percent below 10; inactive means the rest.
Permitted responses: class 1 = active, class 0 = inactive

CCN(CC)c1ccc2cc(NC(=O)OCCNC(=O)CCNC(=O)[C@H](CC(C)C)NC(=O)C(C)(C)NC(=O)C(C)(C)NC(=O)[C@H](CC(C)C)NC(=O)CCNC(=O)C(C)(C)NC(=O)[C@H](CC(C)C)NC(=O)CCNC(=O)[C@@](C)(CC)NC(=O)[C@H](C)NC(=O)CCNC(=O)C(C)(C)NC(=O)[C@H](C)NC(=O)[C@@H]3CCCN3C(=O)[C@@](C)(CC)NC(=O)[C@H](Cc3ccccc3)NC(=O)C3CCCN3C(=O)C(C)(C)NC(=O)C3CCCN3C(=O)C(C)(C)NC(C)=O)c(=O)oc2c1 (some centres undefined); class 1
c1cc2ccc1CNCCN1CCNCc3ccc(cc3)Oc3ccc(cc3)CNCCN(CCNCc3ccc(cc3)O2)CCNCc2ccc(cc2)Oc2ccc(cc2)CNCC1; class 1
COc1ccc(C2=C(c3cn(C)c4ccccc34)C(=O)OC2)cc1OC; class 0
O=C(Nc1cc(-c2cccnc2)nc(NCCCN2CCOCC2)n1)c1cc(Br)cc(C(F)(F)F)c1; class 0
CN(C)c1ccc(N=Nc2ccc3ccccc3c2)cc1; class 0
C#C[C@]1(O)CC[C@H]2[C@@H]3CC=C4c5nc(Nc6ncccn6)sc5CC[C@]4(C)[C@H]3CC[C@@]21C; class 0
CCN(CC)c1ccc(/C=C/c2ccc3cc(C)ccc3[n+]2CC)cc1; class 0
CCC(C)[C@H](NC(=O)NC(=O)NC(=O)CI)C(=O)OC (some centres undefined); class 0
O=C(Nc1ccc(Nc2ccncc2)cc1)c1ccc([N+](=O)[O-])cc1; class 0
O=[N+]([O-])c1cccc(N=NNc2cccc([N+](=O)[O-])c2)c1; class 0

Name the outcome recorded for `CNc1cc(C(=O)O)nc(NC)n1` in the assay.
class 0

Name the outcome recorded for `CC1=CC[C@@H]2C(C)(C)C(=O)CC[C@@]2(C)[C@@H]1COc1ccc2ccc(=O)oc2c1` in the assay.
class 0
